The reported numbers originate from ChEMBL document CHEMBL1140602.

- Experiment Notes: Inhibition of C3b activation relative to compstatin
Positions of bridges follow the written chain, without caps; N, C: chain ends. Residues, ends and D or L forms follow the SMILES beside them.
Result Type: logIC50

CC[C@H](C)[C@H](NC(C)=O)C(=O)N[C@H]1CSSC[C@@H](C(=O)N[C@H](C(N)=O)[C@@H](C)O)NC(=O)[C@H](CCCNC(=N)N)NC(=O)[C@H](Cc2cnc[nH]2)NC(=O)[C@H](Cc2cnc[nH]2)NC(=O)CNC(=O)[C@H](Cc2c[nH]c3ccccc23)NC(=O)[C@H](CC(=O)O)NC(=O)[C@H](CCC(N)=O)NC(=O)[C@H](Cc2ccccc2)NC(=O)[C@H](C(C)C)NC1=O (Ac-ICVFQDWGHHRCT-NH2; disulfide 2-12): 0.721

Take each entry in turn and give its logIC50.
1. CC[C@H](C)[C@H](NC(C)=O)C(=O)N[C@H]1CSSC[C@@H](C(=O)N[C@H](C(N)=O)[C@@H](C)O)NC(=O)[C@H](CCCNC(=N)N)NC(=O)[C@H](Cc2cnc[nH]2)NC(=O)[C@H](Cc2cnc[nH]2)NC(=O)CNC(=O)[C@H](Cc2c[nH]c3ccccc23)NC(=O)[C@H](CC(=O)O)NC(=O)[C@H](CCC(N)=O)NC(=O)[C@H](C(C)C)NC(=O)[C@H](CC(C)C)NC1=O (Ac-ICLVQDWGHHRCT-NH2; disulfide 2-12)
2. CC[C@H](C)[C@H](NC(C)=O)C(=O)N[C@H]1CSSC[C@@H](C(=O)N[C@H](C(N)=O)[C@@H](C)O)NC(=O)[C@H](CCCNC(=N)N)NC(=O)[C@H](Cc2cnc[nH]2)NC(=O)[C@H](C)NC(=O)CNC(=O)[C@H](Cc2c[nH]c3ncccc23)NC(=O)[C@H](CC(=O)O)NC(=O)[C@H](CCC(N)=O)NC(=O)[C@H](Cc2c[nH]c3ncccc23)NC(=O)[C@H](C(C)C)NC1=O

Ans.
0.079
-0.358
